Extract Bioproduct conc. (%) overview
assay: Extraction of aqueous bioproduct solutions with 1-butene in a pressure vessel (distribution coefficient)
Type: physicochemical
condition.notes: 100 g aqueous solution, 2% initial bioproduct, mixed with 100 g 1-butene; extract phase
# unit: % | format: bare number

>>> quantitative_readout("CCC(=O)O [Propionic Acid]")
1.00
>>> quantitative_readout("CCCC(C)=O [Example 2-Pentanone, 2-Pentanone]")
1.81
>>> quantitative_readout("O=C1CCCO1 [Gamma Butyrolactone]")
1.60
>>> quantitative_readout("O=C(O)CCCC(=O)O [Glutaric Acid]")
0.44
>>> quantitative_readout("CCCC(=O)OC [Methyl Butyrate]")
2.00
>>> quantitative_readout("CCCC=O [Butanal]")
1.78
>>> quantitative_readout("O=Cc1ccco1 [Furfural]")
1.56

Problem: Given O=C(O)CCC(=O)O [Succinic Acid] , state its recorded Extract Bioproduct conc. (%).
Solution: 0.158
